# MIC A. baumannii ATCC 19606 annotations
# Tested on: A. baumannii ATCC 19606
# Type: cell-based, Acinetobacter baumannii
# Particulars: median of triplicate
Positions of bridges follow the written chain, without caps; N, C: chain ends. Non-standard residues stand in square brackets, D forms with d. Residues, ends and D or L forms follow the SMILES beside them. *: point of attachment. Ethyl(2-propionyloxy) = CCC(=O)OCC*; Ethyl(2-OBz) = O=C(OCC*)c1ccccc1; Dab = NCC[C@H](N)C(=O)O; X3 = CCCC(C)C(=O)OCC*
# value in µg/mL; strip the unit string

[
  {
    "Compound": "CCC(=O)OCCSC[C@H](N)C(=O)N[C@@H](CCN)C(=O)N[C@H](C(=O)N[C@@H](CCN)C(=O)N[C@H]1CCNC(=O)[C@H]([C@@H](C)O)NC(=O)[C@H](CCN)NC(=O)[C@H](CCN)NC(=O)[C@H](CSCCOC(=O)c2ccccc2)NC(=O)[C@@H](Cc2ccccc2)NC(=O)[C@H](CCN)NC1=O)[C@@H](C)O [Compound 44] (H-C(Ethyl(2-propionyloxy))[Dab]T[Dab][Dab][Dab][dF]C(Ethyl(2-OBz))[Dab][Dab]T; lactam 5-C)",
    "MIC A. baumannii ATCC 19606, µg/mL": 32
  },
  {
    "Compound": "CCCC(C)C(=O)OCCSC[C@@H](N)C(=O)N[C@H](C(=O)N[C@@H](CCN)C(=O)N[C@H]1CCNC(=O)[C@H]([C@@H](C)O)NC(=O)[C@H](CCN)NC(=O)[C@H](CCN)NC(=O)[C@H](CC(C)C)NC(=O)[C@@H](Cc2ccccc2)NC(=O)[C@H](CCN)NC1=O)[C@@H](C)O (stereo partly drawn) [Compound 94] (H-[dC](X3)T[Dab][Dab][Dab][dF]L[Dab][Dab]T; lactam 4-C)",
    "MIC A. baumannii ATCC 19606, µg/mL": 4
  }
]

We next turn to a different compound, shown below.
What value of MIC A. baumannii ATCC 19606 has been reported for the following compound? CC(C)C[C@@H]1NC(=O)[C@@H](Cc2ccccc2)NC(=O)[C@H](CCN)NC(=O)[C@@H](NC(=O)[C@H](CCN)NC(=O)[C@@H](NC(=O)[C@H](CCN)NC(=O)[C@@H](N)CSCCOC(=O)c2ccccc2)[C@@H](C)O)CCNC(=O)[C@H]([C@@H](C)O)NC(=O)[C@H](CCN)NC(=O)[C@H](CCN)NC1=O [Compound 33] (H-C(Ethyl(2-OBz))[Dab]T[Dab][Dab][Dab][dF]L[Dab][Dab]T; lactam 5-C)
0.5

----------
# maps each entry to its MIC P. aeruginosa ATCC 27853
# Test system: P. aeruginosa ATCC 27853
# Format: cell-based, Pseudomonas aeruginosa
# Particulars: median of triplicate
Positions of bridges follow the written chain, without caps; N, C: chain ends. Non-standard residues stand in square brackets, D forms with d. Residues, ends and D or L forms follow the SMILES beside them. *: point of attachment. Ethyl(2-propionyloxy) = CCC(=O)OCC*; Ethyl(2-OBz) = O=C(OCC*)c1ccccc1; Octanoyl = CCCCCCCC(=O)*; Dab = NCC[C@H](N)C(=O)O; X3 = CCCC(C)C(=O)OCC*
// return numeric value only (unit: µg/mL, not printed)

Worked set:
[
  {
    "Molecule": "CCCC(C)C(=O)OCCSC[C@@H](N)C(=O)N[C@H](C(=O)N[C@@H](CCN)C(=O)N[C@H]1CCNC(=O)[C@H]([C@@H](C)O)NC(=O)[C@H](CCN)NC(=O)[C@H](CCN)NC(=O)[C@H](CC(C)C)NC(=O)[C@@H](Cc2ccccc2)NC(=O)[C@H](CCN)NC1=O)[C@@H](C)O (stereo partly shown) [Compound 94] (H-[dC](X3)T[Dab][Dab][Dab][dF]L[Dab][Dab]T; lactam 4-C)",
    "MIC P. aeruginosa ATCC 27853 [µg/mL]": 2
  },
  {
    "Molecule": "CCC(=O)OCCSC[C@H](N)C(=O)N[C@@H](CCN)C(=O)N[C@H](C(=O)N[C@@H](CCN)C(=O)N[C@H]1CCNC(=O)[C@H]([C@@H](C)O)NC(=O)[C@H](CCN)NC(=O)[C@H](CCN)NC(=O)[C@H](CSCCOC(=O)c2ccccc2)NC(=O)[C@@H](Cc2ccccc2)NC(=O)[C@H](CCN)NC1=O)[C@@H](C)O [Compound 44] (H-C(Ethyl(2-propionyloxy))[Dab]T[Dab][Dab][Dab][dF]C(Ethyl(2-OBz))[Dab][Dab]T; lactam 5-C)",
    "MIC P. aeruginosa ATCC 27853 [µg/mL]": 16
  }
]

Here is another molecule to look at.
Would you kindly share the measured MIC P. aeruginosa ATCC 27853 for CCCCCCCC(=O)N[C@@H](CSCCOC(=O)c1ccccc1)C(=O)N[C@@H](CCN)C(=O)N[C@H](C(=O)N[C@@H](CCN)C(=O)N[C@H]1CCNC(=O)[C@H]([C@@H](C)O)NC(=O)[C@H](CCN)NC(=O)[C@H](CCN)NC(=O)[C@H](CSCCOC(=O)c2ccccc2)NC(=O)[C@@H](Cc2ccccc2)NC(=O)[C@H](CCN)NC1=O)[C@@H](C)O [Compound 51] (Octanoyl-C(Ethyl(2-OBz))[Dab]T[Dab][Dab][Dab][dF]C(Ethyl(2-OBz))[Dab][Dab]T; lactam 5-C) ?
2

FYI, the data here is from patent US20250282827A1.
